Test system: NCI-H522
Test: NCI tumour cell line growth inhibition, 48 h
The source made the active and inactive calls. Cut-off read from the data, not from the text of the source: active = GI50 up to about 1.1 µM and inactive = higher.
Observation Type: GI50

INSERT INTO results (compound, experimental_system, experimental_value) VALUES
  ('CCOC(=O)N1C/C(=C\c2ccccc2)C(=O)/C(=C/c2ccccc2)C1', 'NCI-H522', '2.56 µM (inactive)'),
  ('C[C@]12CC[C@H]3[C@@H](CCC4=CC(=O)CC[C@@]43C)[C@@H]1CC[C@@H]2C(=O)Nc1ccc([N+](=O)[O-])c(C(F)(F)F)c1', 'NCI-H522', '17.2 µM (inactive)'),
  ('OC1(c2ccc(Cl)cc2)c2ccccc2C2=Nc3ccccc3CN21 (centres undefined)', 'NCI-H522', '25.1 µM (inactive)'),
  ('CCCCCCCCCCCCCCCC(=O)Nc1ccn(C2CCC(COP(=O)(O)OCC3OC(n4cc(F)c(=O)[nH]c4=O)CC3OC(C)=O)O2)c(=O)n1 (centres undefined)', 'NCI-H522', '12.3 µM (inactive)'),
  ('CCOC(=O)C12OC(CCC1=O)C(C(=O)OC)=C2C(=O)OC (centres undefined)', 'NCI-H522', '> 10 µM (inactive)');

Data request: What GI50 value was documented for this compound, COC(=O)/C(=N\NC(=O)C[N+](C)(C)C)C(C(=O)OC)C(=O)C(=O)Nc1ccccc1C(N)=O (centres undefined) ?
Data returned: > 100 µM (inactive)

Data request: What GI50 value was documented for this compound, "Cn1c(=O)cc(NNc2ccccc2)[nH]c1=O" ?
Data returned: 15.1 µM (inactive)
